Molecular target: T1, SARS-CoV-2 Receptor Binding Domain (RBD) protein (SARS-CoV-2, UniProt P0DTC2 319-541)
T1 construct: also called Sars-Cov-2 (COV2)
Test: SPR (Carterra LSA); scFv captured by anti-V5, RBD as analyte
I would appreciate it if you labelled entries yes when kon is 400000 M⁻¹ s⁻¹ or higher, otherwise no.

Here's what some known entries look like.
INSERT INTO assay_data (binder, assigned_label) VALUES
  ('COVID19_P01_G05 (scFv, V domains shown) VH: QVQLVQSGAEVKKPGSSVKVSCKASGYTFTDFYIHWVRQAPGQGLEWMGGIIPIFGTANYAQKFQGRVTITADESTSTAYMELSSLRSEDTAVYYCALETVMGGMDVWGQGTLVTVSS VL: SSYVLTQPPSVSVAPGKTARITCGGNNIGSKSVHWYQQKPGQAPVLVIYYDSDRPSGIPERFSGSNSGNTATLTISRVEAGDEADYYCQVWDSSSHYVFGGGTKLTVLA', 'yes'),
  ('COVID19_P02_D10 (scFv, V domains shown) VH: QVQLVQSGAEVKKPGSSVKVSCKASGYMFTEFYMHWVRQAPGQGLEWMGGIIPVSGTANYAQKFQGRVTITADESTSTAYMELSSLRSEDTAVYYCARETVMGGMDVWGQGTLVTVSS VL: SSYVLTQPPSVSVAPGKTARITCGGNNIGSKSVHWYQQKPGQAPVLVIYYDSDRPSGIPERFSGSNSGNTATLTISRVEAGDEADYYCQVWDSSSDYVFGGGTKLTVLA', 'no'),
  ('COVID19_P01_C09 (scFv, V domains shown) VH: QVQLVQSGAEVKKPGSSVKVSCKASGYTFTSFDIHWVRQAPGQGLEWMGGIIPIFGTANYAQKFQGRVTITADESTSTAYMELSSLRSEDTAVYYCAYETVMGGMDVWGQGTLVTVSS VL: SSYVLTQPPSVSVAPGKTARITCGGNNIGSKSVHWYQQKPGQAPVLVIYYDSDRPSGIPERFSGSNSGNTATLTISRVEAGDEADYYCQVWDSSSYYVFGGGTKLTVLA', 'yes'),
  ('COVID19_P13_D11 (scFv, V domains shown) VH: QVQLVQSGAEVKKPGSSVKVSCKASGYSFNAFYIHWVRQAPGQGLEWMGGIIPIFGTANYAQKFQGRVTITADESTSTAYMELSSLRSEDTAVYYCALETVMGGMDVWGQGTLVTVSS VL: SSYVLTQPPSVSVAPGKTARITCGGNNIGSKSVHWYQQKPGQAPVLVIYYDSDRPSGIPERFSGSNSGNTATLTISRVEAGDEADYYCQVWDGSSDYVFGGGTKLTVLA', 'no');

Turning now to a further binder:
API: above_or_equal(metric=kon, cutoff=400000 M⁻¹ s⁻¹) for item COVID19_P02_A11 (scFv, V domains shown) VH: QVQLVQSGAEVKKPGSSVKVSCKASGSTFSMFAINWVRQAPGQGLEWVGVINPRGSSTTYAQKFQGRVTITADESTSTAYMELSSLRSEDTAVYYCARDTVMGGMDVWGQGTLVTVSS VL: SSYVLTQPPSVSVAPGKTARITCGGNNIGSKSVHWYQQKPGQAPVLVIYYDSDRPSGIPERFSGSNSGNTATLTISRVEAGDEADYYCQVWDRSSDYVFGGGTKLTVLA no
